measured.target: Cannabinoid receptor 1 (Rattus norvegicus, UniProt P20272)
Sequence (P20272 whole entry): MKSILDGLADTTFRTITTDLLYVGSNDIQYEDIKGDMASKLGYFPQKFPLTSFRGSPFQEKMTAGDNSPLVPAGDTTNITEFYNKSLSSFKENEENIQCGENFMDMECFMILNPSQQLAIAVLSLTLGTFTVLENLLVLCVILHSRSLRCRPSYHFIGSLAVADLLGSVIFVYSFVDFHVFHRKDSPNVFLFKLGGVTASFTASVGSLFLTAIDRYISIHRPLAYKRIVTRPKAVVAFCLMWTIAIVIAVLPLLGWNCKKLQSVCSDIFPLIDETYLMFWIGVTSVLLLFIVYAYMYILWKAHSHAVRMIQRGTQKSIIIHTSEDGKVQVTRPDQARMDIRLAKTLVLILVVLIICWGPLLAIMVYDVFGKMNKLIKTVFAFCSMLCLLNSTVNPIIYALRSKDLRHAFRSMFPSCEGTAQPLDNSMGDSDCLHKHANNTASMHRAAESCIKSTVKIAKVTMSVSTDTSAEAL
assay.notes: In vitro binding affinity was determined against rat brain Cannabinoid receptor 1
stated.conditions: read-out: Ki
measurement.label: Ki (nM)
Reply numerically in nM, unit not repeated.

> print(dat)
                            smiles.notation  unit.of.measurement  result.value
1  CCCCC/C=C\C/C=C\C/C=C\C/C=C\CCCC(=O)NC(C)(C)CO                   nM           162
2  CCCCC/C=C\C/C=C\C/C=C\C/C=C\CCCC(=O)NC(C)(C)C                   nM           139
3  CCCCC/C=C\C/C=C\C/C=C\C/C=C\CCCC(=O)NCCC(C)C                   nM           575
4  CCCCC/C=C\C/C=C\C/C=C\C/C=C\CCC(C)(C)C(=O)NC(C)C                   nM           7.2
5  CCCCC/C=C\C/C=C\C/C=C\C/C=C\CCCC(=O)NC(C)(C)CC                   nM           447
6  CCCCC/C=C\C/C=C\C/C=C\C/C=C\CCCC(=O)NCCOC                   nM          85.2

Now, please, on to the next compound.
Ki lookup needed for CCCCC/C=C\C/C=C\C/C=C\C/C=C\CCC(C)(C)C(=O)N[C@H](C)CO , thanks.
31.1
